- Test system: SGK
- condition.notes: concentration: 1 μM, replicates: in singlicate; n = 1;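 further: KINOMEscan kinase panel screen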
property: %Inh (%)

mol.smiles | property | value.reported
CC(=O)Nc1nc2cnc(Nc3cc(NC(=O)c4cccc(C5(C#N)CC5)c4Cl)ccc3C)nc2s1 | %Inh | 0
CC(C)c1nc(-c2cccc(NS(=O)(=O)c3c(F)cccc3F)c2F)c(-c2ccnc(Nc3ccc(N4CCOCC4)nc3)n2)s1 | %Inh | 40
c1ccc(Oc2ccc(Nc3ccnc4cc(-c5ccc(CNCCN6CCOCC6)o5)ccc34)cc2)nc1 | %Inh | 17
C[C@@H]1CC[C@@H](C(=O)Nc2ccccc2)CN1c1cc(-c2ccc3c(N)n[nH]c3c2)nc(N)n1 | %Inh | 0

* * *

Measured %Inh values are reported for all entries that follow.
- Test system: STK39
- condition.notes: concentration: 1 μM, replicates: in singlicate; n = 1

compound | %Inh, %
O=C(Nc1cccc(-c2nn3ncccc3c2-c2ccnc(Nc3ccccc3)n2)c1)c1c(F)cccc1F [GSK198271] | 0
O=C(Nc1cccc(Oc2ccc3nc(NC(=O)C4CC4)cn3n2)c1)c1ccccc1C(F)(F)F | 11
CCS(=O)(=O)c1ccc(OC)c(Nc2nccc(-c3c(-c4cccc(NC(=O)c5c(F)cccc5F)c4)nn4ncccc34)n2)c1 [GSK326180] | 16
CN(C)Cc1ccc(-c2ccc3c(Nc4ccc(Oc5ccccn5)cc4)ccnc3c2)o1 [GW567148] | 0

* * *

- Test system: ASK2
- Construct: gene MAP3K6
- condition.notes: concentration: 1 μM, replicates: in singlicate; n = 1
property: %Inh (%)

compound | experimental.system | property | value.reported
Nc1ncc(-c2ccc3nccc(-c4ccncc4)c3c2)cc1S(=O)(=O)N1CCOCC1 [GSK1627798] | ASK2 | %Inh | 0
C[C@@H](Oc1cc(-n2cnc3cc(-c4ccnc(NCCS(C)(=O)=O)c4)ccc32)sc1C(N)=O)c1ccccc1Cl [GSK907232] | ASK2 | %Inh | 7
O=C(Nc1n[nH]c2nc(-c3ccc(O)cc3)ccc12)C1CC1 [SB-710363] | ASK2 | %Inh | 12
CSc1cccc2c(-c3ccncn3)c(-c3ccc(F)cc3)nn12 [GW514786] | ASK2 | %Inh | 29
Cc1ccc(C(=O)Nc2ccc(Nc3ccnc4cc(-c5nccs5)ccc34)cc2O)cc1.Cl [GW494702] | ASK2 | %Inh | 0
O=C(Nc1n[nH]c2cc(-c3ccoc3)ccc12)C1CC1 [SB-738481] | ASK2 | %Inh | 5
COc1cccc(-c2ccc3c(NC(=O)C4CC4)n[nH]c3n2)c1 [SB-710903] | ASK2 | %Inh | 0
Cn1cc(-c2ccc3c(c2)CCN3C(=O)Cc2cccc(Cl)c2)c2c(N)ncnc21 [GSK2606590] | ASK2 | %Inh | 19
COc1cccc(C(=O)Nc2cccc(Oc3ccc4nc(NC(=O)C5CC5)cn4n3)c2)c1 | ASK2 | %Inh | 0
Cc1ccc(F)c(C(=O)Nc2cccc(-c3nn4ccccc4c3-c3ccnc(Nc4cccc(F)c4)n3)c2)c1F [GSK361061] | ASK2 | %Inh | 27
COc1cc(Nc2nccc(N3CCC(NC(=O)c4cc5ccccc5s4)C3)n2)cc(OC)c1OC (centres unmarked) [GSK1379760] | ASK2 | %Inh | 100
Clc1ccc(-c2nn3ncccc3c2-c2ccnc(Nc3ccc4c(c3)OCCO4)n2)cc1 [GW829116] | ASK2 | %Inh | 0
COc1cc2c(cc1OCCN1CCNCC1)ncc1c3ccc(C#N)cc3[nH]c21 | ASK2 | %Inh | 16
CCc1ccc(-c2ccc3c(c2)-c2c(cnn2C)S(=O)(=O)N3C)cc1 | ASK2 | %Inh | 0
Nc1ncc(-c2cccnc2)c2scc(-c3ccc4c(c3)CCN4C(=O)Cc3ccccc3)c12 [GSK683281] | ASK2 | %Inh | 10
FC(F)(F)c1ccc(/C=C/c2cncnc2Nc2ccc3[nH]c(Cc4ccccc4)nc3c2)cc1 [GW709199] | ASK2 | %Inh | 0
CN(C)Cc1ccc(-c2ccc3c(Nc4ccc(Oc5ccccn5)cc4)ccnc3c2)o1 [GW567148] | ASK2 | %Inh | 0

* * *

- System: S6K1
- condition.notes: concentration: 1 μM, replicates: in singlicate; n = 1

compound | unit.descriptor | %Inh
CN(C)Cc1ccc(-c2ccc3c(Nc4ccc(Oc5ccccn5)cc4)ccnc3c2)o1 [GW567148] | % | 5
COc1ccc(Nc2nccc(NCCNC(=O)c3cc4ccccc4s3)n2)cc1 [GSK1379896] | % | 7
O=C(NC1CCN(c2ccnc(Nc3ccc(F)cc3)n2)C1)c1cc2ccccc2s1 (stereo not drawn) [GSK1379716] | % | 0
C[C@@H](Oc1cc(-n2cnc3cc(-c4ccnc(NCCS(C)(=O)=O)c4)ccc32)sc1C(N)=O)c1ccccc1Cl [GSK907232] | % | 0
CC(C)(C)c1ccc2nccc(Nc3cccc(O)c3)c2c1 [GW856795] | % | 9
COc1cccc(C2=C(Nc3ccc(Cl)c(C(=O)O)c3)C(=O)NC2=O)c1 [SB-390769] | % | 2

* * *

- Test system: PLK1
- condition.notes: concentration: 1 μM, replicates: in singlicate; n = 1
Measured %Inh values are reported for all entries that follow.

compound | %Inh, %
COC(=O)Nc1nc2cc(Oc3ccc(NC(=O)Nc4cc(C(F)(F)F)ccc4F)cn3)ccc2[nH]1.Cl.Cl [GW681170] | 0
CN1CCN(CCCNc2nccc(-c3c(-c4ccc(F)cc4)nn4cc(C(F)(F)F)ccc34)n2)CC1 [GW621581] | 0
O=C(Nc1cccc(Oc2ccc3nc(NC(=O)C4CC4)cn3n2)c1)c1ccccc1C(F)(F)F | 0
CN(C)S(=O)(=O)c1cc(-c2ccc3nccc(-c4cccc(S(N)(=O)=O)c4)c3c2)cnc1N [GSK1669921] | 33
Cl.Cl.NCC(NCc1ccc(-c2ccnc3[nH]ccc23)s1)c1ccccc1 (centres unmarked) [GSK1321565] | 0

* * *

- Test system: PIK3CA
- condition.notes: concentration: 1 μM, replicates: in singlicate; n = 1
property: %Inh

molecule | property | value.reported
COc1cc(Nc2nccc(N3CCC(NC(=O)c4cc5ccccc5s4)C3)n2)cc(OC)c1OC (centres unmarked) | %Inh | 0%
Cl.Cl.NCC(NC(=O)c1cc(-c2ccccc2)c(-c2ccnc3[nH]ccc23)s1)c1ccccc1 (centres unmarked) | %Inh | 0%
CN1CCN(CCCNc2nccc(-c3c(-c4ccc(F)cc4)nn4cc(C(F)(F)F)ccc34)n2)CC1 | %Inh | 0%
Cc1occc1-c1ncc(OC[C@@H](N)Cc2c[nH]c3ccccc23)cc1-c1ccc2[nH]nc(C)c2c1.O=C(O)C(F)(F)F | %Inh | 0%
O=C(NC1CCN(c2ccnc(Nc3ccc(F)cc3)n2)C1)c1cc2ccccc2s1 (centres unmarked) | %Inh | 0%
COc1cc(Nc2nccc(-c3c(-c4cccc(NC(=O)c5c(F)cccc5F)c4)nn4ccccc34)n2)cc(OC)c1OC | %Inh | 4%
Cc1ccc(C)c(NC(=O)NC2CCN(c3ccnc(Nc4ccc(F)cc4)n3)C2)c1 (centres unmarked) | %Inh | 0%
c1ccc(-c2n[nH]cc2Nc2ccnc3ccccc23)nc1 | %Inh | 0%

* * *

- Tested on: RSK3(Kin.Dom.2-C-terminal)
- Construct: gene RPS6KA2
- condition.notes: concentration: 1 μM, replicates: in singlicate; n = 1
Measured %Inh values are reported for all entries that follow.

compound | %Inh (%)
NCCCC(NC(=O)c1cc(Br)c(-c2ccnc3[nH]ccc23)s1)c1ccccc1.O=C(O)C(F)(F)F.O=C(O)C(F)(F)F (stereo not drawn) | 0
Cl.c1ccc(-c2ccc3c(Nc4ccc5[nH]ccc5c4)ccnc3c2)nc1 | 15
COc1cc(Nc2nccc(-c3c(-c4cccc(NC(=O)c5c(F)cccc5F)c4)nn4ccccc34)n2)cc(OC)c1OC | 9

* * *

Measured %Inh values are reported for all entries that follow.
- Test system: RSK1(Kin.Dom.2-C-terminal)
- Construct: gene RPS6KA1
- condition.notes: concentration: 1 μM, replicates: in singlicate; n = 1
property: %Inh (%)

molecule | value.reported
COC(=O)Nc1nc2ccc(Oc3ccc(NC(=O)Nc4cc(C(F)(F)F)ccc4F)cc3)cc2n1C.Cl | 0
Cl.Cl.NCC(NCc1ccc(-c2ccnc3[nH]ccc23)s1)c1ccccc1 (centres unmarked) | 0
CCCCc1nn2ncccc2c1-c1ccnc(Nc2ccc(N3CCN(C)CC3)cc2)n1 | 31
Nc1n[nH]c2cnc(-c3ccccc3)cc12 | 0
CSc1cccc2c(-c3ccncn3)c(-c3ccc(F)cc3)nn12 | 38
Cc1occc1-c1ncc(OC[C@@H](N)Cc2c[nH]c3ccccc23)cc1-c1ccc2[nH]nc(C)c2c1.O=C(O)C(F)(F)F | 0
CCn1c(-c2nonc2N)nc2c(C#CC(C)(C)O)ncc(OCCCCN)c21.O=C(O)C(F)(F)F.O=C(O)C(F)(F)F | 0
CCn1c(-c2nonc2N)nc2c(C#CC(C)(C)O)nc(OC[C@H](N)c3ccccc3)cc21 | 0
